System: RMG-I (Ovarian Carcinoma)
Assay Method Text: Bliss excess, mean over the matrix (fraction); higher = more synergy;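 note: after 72 h of two-drug dosing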
Assay Metric: Bliss excess
// response body must contain only the number

{"Compound": "Cn1cnc2c(F)c(Nc3ccc(Br)cc3Cl)c(C(=O)NOCCO)cc21 [Selumetinib] + CC(C)n1c(=O)n(C)c2cnc3cc(F)c(-c4ccc(OCCCN5CCCCC5)nc4)cc3c21 [AZD1390] (first compound max 10 µM, 7x7, partner max 0.3 µM)", "Bliss excess": -0.0268}
{"Compound": "CN(C)CCCOc1ccc(-c2ccc3ncc4c(c3c2)n(C2CCOCC2)c(=O)n4C)cn1 [AZD0156] + C[C@@H]1COCCN1C2=NC(=NC(=C2)C3(CC3)[S@](=N)(=O)C)C4=C5C=CNC5=NC=C4 [AZD6738] (first compound max 1 µM, 7x7, partner max 10 µM)", "Bliss excess": -0.0095}
{"Compound": "CC1(C)CCC(CN2CCN(c3ccc(C(=O)NS(=O)(=O)c4ccc(NCC5CCOCC5)c([N+](=O)[O-])c4)c(Oc4cnc5[nH]ccc5c4)c3)CC2)=C(c2ccc(Cl)cc2)C1 [Venetoclax] + CN(C)CCCOc1ccc(-c2ccc3ncc4c(c3c2)n(C2CCOCC2)c(=O)n4C)cn1 [AZD0156] (first compound max 1 µM, 7x7, partner max 1 µM)", "Bliss excess": -0.016}

Request: Given COc1cc2ncnc(Nc3ccc(F)c(Cl)c3)c2cc1OCCCN1CCOCC1 [Gefitinib] + CC(C)n1c(=O)n(C)c2cnc3cc(F)c(-c4ccc(OCCCN5CCCCC5)nc4)cc3c21 [AZD1390] (first compound max 10 µM, 7x7, partner max 0.3 µM) , state its recorded Bliss excess.
Result: -0.0346

Request: Given COc1cccc(OCCCN)c1-c1cc(Nc2cnc(C#N)cn2)n[nH]1 [Prexasertib] + Cc1cc2ncnn2cc1Nc1ncc2c(n1)n(C1CCOCC1)c(=O)n2C [AZD7648] (first compound max 1 µM, 7x7, partner max 10 µM) , state its recorded Bliss excess.
Result: -0.0235

Request: Given C[C@@H](c1ccc2nccn2c1)n1nnc2ncc(-c3cnn(C)c3)nc21 [Savolitinib] + CC1(C)CCC(CN2CCN(c3ccc(C(=O)NS(=O)(=O)c4ccc(NCC5CCOCC5)c([N+](=O)[O-])c4)c(Oc4cnc5[nH]ccc5c4)c3)CC2)=C(c2ccc(Cl)cc2)C1 [Venetoclax] (first compound max 1 µM, 7x7, partner max 1 µM) , state its recorded Bliss excess.
Result: -0.0756

Request: Given C=CCn1c(=O)c2cnc(Nc3ccc(N4CCN(C)CC4)cc3)nc2n1-c1cccc(C(C)(C)O)n1 [AZD1775] + O=C(c1cc(Cc2n[nH]c(=O)c3ccccc23)ccc1F)N1CCN(C(=O)C2CC2)CC1 [Olaparib] (first compound max 1 µM, partner max 10 µM) , state its recorded Bliss excess.
Result: -0.0105

----------
Test system: NCI-H1623 (Lung Adenocarcinoma)
Assay Method Text: Bliss excess, mean over the matrix (fraction); higher = more synergy
Assay Metric: Bliss excess
// response body must contain only the number

{"Compound": "COc1nnc2ccc(N3CCC(c4ccc(OCCN5CCN(C)C(=O)[C@H]5C)cc4)CC3)nn12 [AZD5153] + C=CCn1c(=O)c2cnc(Nc3ccc(N4CCN(C)CC4)cc3)nc2n1-c1cccc(C(C)(C)O)n1 [AZD1775] (first compound max 1 µM, partner max 1 µM)", "Assay Metric": "Bliss excess", "Measured": -0.0101}

API: the following record is the query input.
Request: Given COc1nnc2ccc(N3CCC(c4ccc(OCCN5CCN(C)C(=O)[C@H]5C)cc4)CC3)nn12 [AZD5153] + CCN(CCO)CCCOc1ccc2c(Nc3cc(CC(=O)Nc4cccc(F)c4)[nH]n3)ncnc2c1 [AZD2811] (first compound max 1 µM, 7x7, partner max 1 µM) , state its recorded Bliss excess.
Result: -0.0117

Origin of values: the supplement of paper PMC11061612
